system: Rattus norvegicus; assay: Dose normalized AUC in po dosed Sprague-Dawley rat by LC/MS/MS analysis; assay type: ADME, organism-based; conditions: in vivo
Tag: true if measured AUC/dose is not below 0.1 kg·h/L, false if it is.

Data request: Determine whether measured AUC/dose meets or exceeds 0.1 kg·h/L for CNS(=O)(=O)c1cccc(Nc2ncnc3[nH]cc(-c4ccc(C(=O)O)cc4)c23)c1
Data returned: false

Data request: Determine whether measured AUC/dose meets or exceeds 0.1 kg·h/L for CNS(=O)(=O)c1cccc(Nc2ncnc3[nH]c(Br)cc23)c1
Data returned: true

Data request: Determine whether measured AUC/dose meets or exceeds 0.1 kg·h/L for CNS(=O)(=O)c1cccc(Nc2ncnc3[nH]c(-c4cccc(C(F)(F)F)c4)cc23)c1
Data returned: true

Further cases:
Data request: Determine whether measured AUC/dose meets or exceeds 0.1 kg·h/L for CNS(=O)(=O)c1cccc(Nc2ncnc3[nH]cc(-c4ccccc4)c23)c1
Data returned: false

Data request: Determine whether measured AUC/dose meets or exceeds 0.1 kg·h/L for CNS(=O)(=O)c1ccc(N(C)C)c(Nc2ncnc3[nH]c(Br)cc23)c1
Data returned: true
